# Test system: HCC-2998 colon
# assay_remarks: NCI-60 one-dose screen, 48 h (100 = growth as untreated, 0 = no growth, -100 = all killed)
# condition_description: 10 µM unless noted
This is part of a sample that, as a whole, favours compounds with a hit. Of some 83,000 tested, about 20% had one in any assay.
# class 1 = growth below 70% (exclusive); class 0 = growth at/above 70%

Just wondering, is growth of COc1ccc2[nH]c(O)c(/C=c3/cc4c(c(-c5ccc(F)c(OC)c5)n3)=Nc3ccccc3-4)c2c1 below 70%?
class 1

Param item: O=C(NCCCNc1cc(-c2cn(-c3ccccc3)nc2-c2cccc(O)c2)ccn1)c1ccc(F)cc1
class 1

Param item: COc1ccc(S(=O)(=O)NCCNc2nccc(-c3c(-c4cccc(F)c4)nc4sccn34)n2)cc1
class 1

Param item: Cc1ccc(-c2cc(-c3cccnc3)[nH]c(=O)c2C#N)cc1
class 0

Param item: Cc1cccc(Cc2cnc(NC(=O)/C=C/c3ccco3)s2)c1
class 1

Param item: O=C1Nc2ccc(F)cc2C12Nc1cc(Cl)ccc1S2 (centres undefined)
class 0

Param item: CCc1ccccc1NC(=O)/C(C#N)=C/c1ccc(OC)cc1
class 0

Param item: N#C/C(=C\c1ccc(-c2ccccc2F)o1)c1nc(-c2ccco2)cs1
class 1

Param item: Cc1nn(-c2ccccc2)c(Oc2ccc(Cl)cc2)c1/C=N\N=c1/sc2ccccc2n1C
class 0

Param item: COc1ccc(-c2nc3c(N)c(CO)c(C)nc3o2)cc1
class 0

Param item: CCOP(=O)(OCC)C1CP(=O)(c2ccccc2)CC(C)=C1Cl (centres undefined)
class 0

Param item: Cc1cc(NCc2cc(Nc3ccnc4cc(Cl)ccc34)ccc2F)nc(N2CCSCC2)n1
class 1

Param item: C[C@@]1(CCC#N)[C@H]2CC[C@@H]3[C@H]4[C@H](C(=O)/C=C/c5cccnc5)CC[C@]4(C#N)CC[C@@]3(C)[C@]2(C)CC[C@H]1C(=O)/C=C/c1cccnc1
class 0

Param item: CC1(C)OC2C(CO[Si](C)(C)C(C)(C)C)OC(n3c(I)c(C#C[Si](C)(C)C)c(=O)[nH]c3=O)C2O1 (centres undefined)
class 1

Param item: CC(=O)N1N=C(c2ccc(Nc3nc(Nc4ccc(F)cc4)nc(Nc4ccc(F)cc4)n3)cc2)CC1c1cccc([N+](=O)[O-])c1 (centres undefined)
class 1

Param item: COc1cccc(-c2nn(-c3ccccc3)cc2-c2ccnc(NCCNC(=O)Nc3ccc(Cl)c(Cl)c3)c2)c1
class 1

Param item: COc1cc(C2CC(=O)Nc3c2c(C)nn3-c2nc3ccccc3[nH]2)c(OC)c2c1OCO2 (centres undefined)
class 0

----------
Field: growth. Provide a value for each of the molecules that follow.
# System: PC-3 prostate
# assay_remarks: NCI-60 one-dose screen, 48 h (100 = growth as untreated, 0 = no growth, -100 = all killed)
# condition_description: 10 µM unless noted
# Description: Growth inhibition of the PC-3 human tumor cell line is measured as a screen for anti-cancer activity. Cells are grown in 96 well plates and exposed to the test compound for 48 hours. Compounds are tested at a single concentration, which is 10^-5 M for most compounds. The reported endpoint is percent growth (GI% or GIPRCNT), where numbers from 0 - 100% represent growth inhibition, and numbers from -100% - 0 represent cell death. For example, a value of 40 represents 60% growth inhibition. […]
The panel holds about 83,000 compounds, 20% with a hit somewhere; the sample as a whole holds those more often. Calls of active or inactive are those of the source. The calls were made as follows: active = growth percent below 10; inactive = the rest.

What does the record list as growth for COc1ccc(-c2nc(SCC(=O)Nc3nc(-c4ccccc4)cs3)[nH]c(=O)c2C#N)cc1 ?
86% (inactive)

Param item: CCN(CC)S(=O)(=O)c1cccc(-c2ccc3c(NC(=O)C4CC4)n[nH]c3c2)c1
16.9% [6.25 µM] (inactive)

Param item: O=C1Nc2ccc(F)cc2C12Nc1cc(Cl)ccc1S2 (stereo not given)
57.3% (inactive)

Param item: COc1ccc(S(=O)(=O)NCCNc2nccc(-c3c(-c4cccc(F)c4)nc4sccn34)n2)cc1
29.4% (inactive)

Param item: NS(=O)(=O)c1cnccc1Oc1cccc2cccnc12
95.9% (inactive)
